Compiled IC50 measurements on Receptor-type tyrosine-protein kinase FLT3 (Homo sapiens) taken from the literature.

// below: answered compounds
COc1ncnc2[nH]cc(Cc3ccc(NCc4ccccc4Cl)nc3)c12 | ≤ 10000 nM
COc1ccc(C(=O)NC(=O)Nc2cc3c(cc2F)/C(=C/c2[nH]c(C)c(CCC(=O)O)c2C)C(=O)N3)c(F)c1 | 16.3 nM
CN(c1nc(Nc2cnn(C)c2)ncc1Cl)C1CCN(c2ccc(C#N)cn2)CC1 | 42 nM
COCC(C)Nc1ncc2c(N3CCOCC3=O)cc(C3CCC(O)CC3)n2n1 (centres unmarked) | 1000 to 10000 nM
Cc1[nH]c(/C=C2\C(=O)Nc3cc(NC(=O)c4c[nH]cc(-c5ccc(F)cc5)c4=O)ccc32)c(C)c1CC(=O)O | 1.3 nM
COc1ccccc1Nc1n[nH]c2c1Cc1sccc1-2 | 100 to 499 nM
CCCC(C)Nc1ncc2c(OC3CCN(CC(=O)N(C)C)CC3)ncc([C@H]3CC[C@H](O)CC3)c2n1 (some centres unmarked) | 1000 to 10000 nM

# IC50 (compound: O=C1Nc2cc(NC(=O)c3c[nH]cc(-c4cc(F)cc(F)c4)c3=O)ccc2/C1=C/c1ccc[nH]1 ) is > 1000 nM
